Below, each entry is listed with its recorded pKd.
Biological target: T1, whirlin-PDZ1 (aa residues 137-228) (mouse, UniProt Q80VW5-1 137-228)
T1 construct: extra 7 aa at the N-terminus of all recombinant proteins of the study; whirlin, residues 137-228: PDZ1 domain; also called whirlin PDZ1 domain alone; source: E. coli BL21 (DE3) codonPlus-RIPL, purified (Glutathione Sepharose 4B, GST removed by TEV proteinase, SEC)
T1 sequence: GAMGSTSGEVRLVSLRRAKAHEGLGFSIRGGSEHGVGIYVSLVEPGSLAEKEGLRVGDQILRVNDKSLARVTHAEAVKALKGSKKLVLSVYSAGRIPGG
Assay: SPR; ProteOn XPR 36; N-terminally biotinylated peptides captured on a Neutravidin NLC sensor chip, whirlin fragments flowed as analytes at 20 μL/min for 2 min; 250 mM NaCl, 50 mM Tris pH 7.5, 0.5 mM TCEP; steady-state fit Req = (Rmax*C)/(Kd+C); mean of three experiments; Figure 4B shows the responses at 10 μM
Conditions: both partners purified
No end group written: not given here. *: point of attachment. Biotin = O=C1N[C@H]2[C@H](CS[C@H]2CCCCC(=O)*)N1; TTDS = trioxatridecan-succinamic acid spacer
The read-out pKd is expressed as -log10 of concentration in moles per litre.

Record excerpt, results attached:
{Biotin-TTDS}-MGPWNSLHIPMTKL (C-terminal 14 aa of protocadherin-15 isoform CD3, including the PBM; source: synthetic peptide (Eurogentec); not shown: biotin, N-terminal, kept) [PCDH15-CD3 C-terminal peptide (biotin-TTDS-MGPWNSLHIPMTKL)]; 4.47
{Biotin-TTDS}-GIDVQPHSQSTSL (C-terminal 13 aa of protocadherin-15 isoform CD1, including the PBM; source: synthetic peptide (Eurogentec); not shown: biotin, N-terminal, kept) [PCDH15-CD1 C-terminal peptide (biotin-TTDS-GIDVQPHSQSTSL)]; 3.97
{Biotin-TTDS}-GANSEQYNTAL (C-terminal 11 aa of protocadherin-15 isoform CD2, including the PBM; source: synthetic peptide (Eurogentec); not shown: biotin, N-terminal, kept) [PCDH15-CD2 C-terminal peptide (biotin-TTDS-GANSEQYNTAL)]; 3.83

Here is another binder to look at.
The binder {Biotin-TTDS}-VIMESPLEITEL (C-terminal residues of cadherin-23, including the PBM; source: synthetic peptide (Eurogentec); not shown: biotin, N-terminal, kept) [CDH23 C-terminal peptide (biotin-TTDS-VIMESPLEITEL)] showed pKd equal to 3.85
